# Th-T fluorescence, mean of three wells per record follows
Target: Aβ42 (Homo sapiens)
Experiment: Th-T (thioflavin-T) assay of Aβ42 aggregation
Format: biochemical
Conditions: Aβ42 aggregation time course, reading M133
Give only the figure.

Reference set, count: 5
C=C1CCC2C(C)(CCC=C(C)C)C(O)CCC2(C)C1Cc1c(OC)oc(C)c(C)c1=O (stereo not shown) [Compound 15, viridoxin A hydrolysate]: 3.324
C=C1CCC2C(C)(CC(=O)C=C(C)C)C(O)CCC2(C)C1Cc1c(OC)oc(C)c(C)c1=O (stereo not shown): 3.505
C=C1CC[C@@H]2[C@](C)(CC[C@H]3O[C@H](C=C(C)C)C[C@@]23C)[C@@H]1Cc1c(O)c(C)c(C)oc1=O: 2.995
C=C1CC[C@H]2[C@]3(C)C[C@H](C=C(C)C)O[C@H]3CC[C@]2(C)[C@@H]1Cc1c(OC)oc(CO)c(C)c1=O: 3.777
C=C1CCC2C3(C)CC(C=C(C)C)OC3CCC2(C)C1Cc1c(OC)oc(C)c(C)c1=O (stereo not shown): 3.762

Prompt: Retrieve Th-T fluorescence, mean of three wells on Aβ42 (Homo sapiens); query C=C1CC[C@H]2[C@]3(C)C[C@@H](C=C(C)C)O[C@H]3CC[C@]2(C)[C@@H]1Cc1c(O)c(C)c(C)oc1=O
Completion: 2.648

Prompt: Retrieve Th-T fluorescence, mean of three wells on Aβ42 (Homo sapiens); query C=C1CCC2C(C)(CC(=O)C=C(C)C)C(O)CCC2(C)C1Cc1c(OC)oc(CO)c(C)c1=O (stereo not shown)
Completion: 3.618

###

Tested on: MAGI cells
Assay: cytotoxicity in the anti-HIV assay (CC50)
Format: cell-based
Source text: We examined the inhibitory activities of DDPs against various species of bacteria (both gram-negative and gram-positive bacteria), fungi and viruses. […] In contrast, preliminary screening of the DDPs for anti-viral agents with hepatitis B virus (HBV), measles virus (MV), Epstein-Barr virus (EBV), herpes simplex virus (HSV) and human immunodeficiency virus-1 (HIV-1) indicated their selective inhibition of HIV. Policy information about cell lines […]
REPORTED_METRIC: CC50

Prompt: Given the compound Cc1cn([C@H]2C[C@H](N=[N+]=[N-])[C@@H](CO)O2)c(=O)[nH]c1=O [AZT, reference compound] , write its reported CC50.
Completion: > 10 µM

###

# % viability, viability 2 per record follows
System: l(2)mbn cells
Assay: cytotoxicity in Drosophila l(2)mbn cells
Assay type: cell-based
Conditions: 4 µM, replicate 2, relative to DMSO 1%
Experimental: We screened the DDPs on the Drosophila assay system for cytotoxicity, inhibitory activity of innate immune signalling and insecticidal activity. The cytotoxicity of the DDPs was evaluated using two cell lines, embryonic macrophage-derived DL1 cells[58]–[60] and larval blood cell-derived l(2)mbn cells, and their IC50 values are listed in Supplementary Table 23.
Could you give the number and then its unit, please?

C=C1CCC2C(C)(CCC=C(C)C)C(O)CCC2(C)C1Cc1c(O)c(C)c(C)oc1=O (stereo not shown) [Compound 9, higginsianin B]: 4.712%
C=C1CCC2C(C)(CCC=C(C)C)C(O)CCC2(C)C1Cc1c(OC)oc(C)c(C)c1=O (stereo not shown) [Compound 15, viridoxin A hydrolysate]: 71.8882%

Prompt: Given the molecule C=C1CCC2C(C)(CCC=C(C)C)C(O)CCC2(C)C1Cc1c(O)c(C)c(C)oc1=O (stereo not shown) [Compound 4] , write its reported % viability, viability 2.
Completion: 105.713%

Prompt: Given the molecule C=C1CCC2C(C)(CCC=C(C)C)C(O)CCC2(C)C1Cc1c(OC)oc(C)c(C)c1=O (stereo not shown) [Compound 11] , write its reported % viability, viability 2.
Completion: 2.266%

###

Molecular target: Aβ42 (Homo sapiens, UniProt P05067)
Sequence (P05067 672-713): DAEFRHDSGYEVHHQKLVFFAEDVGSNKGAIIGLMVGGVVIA
Test: Th-T (thioflavin-T) assay of Aβ42 aggregation
Format: biochemical
Conditions: column suffix _50; reading M8
REPORTED_METRIC: Th-T assay signal, mean of three wells (Fig. 7a)

Reference set, count: 4
C=C1CCC2C(C)(CCC=C(C)C)C(O)CCC2(C)C1Cc1c(OC)oc(C)c(C(=O)OC)c1=O (centres unmarked): 0.4517
C=C1CCC2C(C)(CCC=C(C)C)C(O)CCC2(C)C1Cc1c(OC)oc(CO)c(C(=O)OC)c1=O (centres unmarked): 0.1784
C=C1CC[C@@H]2[C@](C)(CC[C@H]3O[C@H](C=C(C)C)C[C@@]23C)[C@@H]1Cc1c(OC)oc(CO)c(C)c1=O: 0.3931
C=C1CCC2C(C)(CCC=C(C)C)C(O)CCC2(C)C1Cc1c(OC)oc(CO)c(C)c1=O (centres unmarked): 2.181

Here is the next item to consider.
Prompt: Given the compound C=C1CC[C@@H]2[C@](C)(CC[C@H]3O[C@H](C=C(C)C)C[C@@]23C)[C@@H]1Cc1c(OC)oc(CO)c(C(=O)OC)c1=O , write its reported Th-T assay signal, mean of three wells (Fig. 7a).
Completion: 0.2075

###

Target: Aβ42 (Homo sapiens, UniProt P05067)
Test: Th-T (thioflavin-T) assay of Aβ42 aggregation
Type: biochemical
Conditions: concentration 10, unit not given; time-course reading M133
Classification field: enter 1 for Th-T fluorescence of Aβ42 with compound, mean of three wells (Fig. 7a source data) values not below 3, -1 for values below it.

For orientation, consider the following solved cases.
C=C1CC[C@@H]2[C@](C)(CC[C@H]3O[C@H](C=C(C)C)C[C@@]23C)[C@@H]1Cc1c(OC)oc(CO)c(C)c1=O [Compound 20]: 1
C=C1CCC2C(C)(CCC=C(C)C)C(O)CCC2(C)C1Cc1c(OC)oc(CO)c(C)c1=O (centres unmarked) [Compound 12]: -1

Prompt: Tell me whether Th-T fluorescence of Aβ42 with compound, mean of three wells (Fig. 7a source data) is at least 3 here: C=C1CCC2C(C)(CCC=C(C)C)C(O)CCC2(C)C1Cc1c(OC)oc(CO)c(C(=O)OC)c1=O (centres unmarked) [Compound 13]
Completion: -1

Prompt: Tell me whether Th-T fluorescence of Aβ42 with compound, mean of three wells (Fig. 7a source data) is at least 3 here: C=C1CC[C@@H]2[C@](C)(CC[C@H]3O[C@H](C=C(C)C)C[C@@]23C)[C@@H]1Cc1c(OC)oc(CO)c(C(=O)OC)c1=O [Compound 21]
Completion: -1

###

Target: Aβ42 (Homo sapiens, UniProt P05067)
Assay: Th-T (thioflavin-T) assay of Aβ42 aggregation
Type: biochemical
Conditions: Supplementary Fig. 47 source data; measurement M51 of time course
# MET = Th-T fluorescence, mean of three wells below 4 (exclusive); NOT MET = Th-T fluorescence, mean of three wells at/above 4

C=C1CC[C@H]2[C@]3(C)C[C@@H](C=C(C)C)O[C@H]3CC[C@]2(C)[C@@H]1Cc1c(O)c(C)c(C)oc1=O [Compound 5, subglutinol A]: MET
C=C1CC[C@@H]2[C@](C)(CC[C@H]3O[C@H](C=C(C)C)C[C@@]23C)[C@@H]1Cc1c(O)c(C)c(C)oc1=O [Compound 10, higginsianin A]: MET
C=C1CC[C@H]2[C@]3(C)C[C@H](C=C(C)C)O[C@H]3CC[C@]2(C)[C@@H]1Cc1c(OC)oc(C)c(C)c1=O [Compound 24]: NOT MET
CC(C)=CCC/C(C)=C/CC/C(C)=C/CC/C(C)=C/Cc1c(O)c(C)c(C)oc1=O [Compound 2]: MET

Here is the next item to consider.
Prompt: Determine if C=C1CCC2C(C)(CC(=O)C=C(C)C)C(O)CCC2(C)C1Cc1c(OC)oc(CO)c(C)c1=O (centres unmarked) [Compound 19] shows Th-T fluorescence, mean of three wells strictly lower than 4.
Completion: MET

###

# Th-T fluorescence, mean of three wells per record follows
Target: UniProt P05067
Assay: Th-T (thioflavin-T) assay of Aβ42 aggregation
Type: biochemical
Details: Aβ42 aggregation time course, reading M118

C=C1CC[C@H]2[C@]3(C)C[C@@H](C=C(C)C)O[C@H]3CC[C@]2(C)[C@@H]1Cc1c(OC)oc(CO)c(C)c1=O [Compound 17]: 3.663
C=C1CCC2C3(C)CC(C=C(C)C)OC3CCC2(C)C1Cc1c(OC)oc(C)c(C)c1=O (stereo not shown) [Compound 23]: 3.829
C=C1CC[C@H]2[C@]3(C)C[C@H](C=C(C)C)O[C@H]3CC[C@]2(C)[C@@H]1Cc1c(O)c(C)c(C)oc1=O [Compound 6, subglutinol B]: 3.0715

Here is the next item to consider.
Prompt: Given the compound C=C1CCC2C(C)(CCC=C(C)C)C(O)CCC2(C)C1Cc1c(OC)oc(C)c(C)c1=O (stereo not shown) [Compound 11] , write its reported Th-T fluorescence, mean of three wells.
Completion: 3.454

###

Target: Aβ42 (Homo sapiens)
Experiment: Th-T (thioflavin-T) assay of Aβ42 aggregation
Format: biochemical
Settings: reading M124; compound at 20 (head suffix _20)
REPORTED_METRIC: Th-T fluorescence, mean of three wells (Fig. 7a)
Give only the figure.

Reference set, count: 4
C=C1CCC2C(C)(CCC=C(C)C)C(O)CCC2(C)C1Cc1c(OC)oc(CO)c(C)c1=O (centres unmarked): 2.17
C=C1CCC2C(C)(CCC=C(C)C)C(O)CCC2(C)C1Cc1c(OC)oc(CO)c(C(=O)OC)c1=O (centres unmarked): 1.037
C=C1CCC2C(C)(CCC=C(C)C)C(O)CCC2(C)C1Cc1c(OC)oc(C)c(C(=O)OC)c1=O (centres unmarked): 1.657
C=C1CC[C@@H]2[C@](C)(CC[C@H]3O[C@H](C=C(C)C)C[C@@]23C)[C@@H]1Cc1c(OC)oc(CO)c(C(=O)OC)c1=O: 0.9577

Prompt: Given the molecule C=C1CC[C@@H]2[C@](C)(CC[C@H]3O[C@H](C=C(C)C)C[C@@]23C)[C@@H]1Cc1c(OC)oc(CO)c(C)c1=O , write its reported Th-T fluorescence, mean of three wells (Fig. 7a).
Completion: 3.1455

Where these numbers come from: paper PMC7156458
